Target: T1, human importin α5 lacking the IBB domain (hIMP5ΔIBB) (human, UniProt P52294 58-538)
T1 construct: pET30a, His tag with TEV site; also called IMPα5; ΔIBB-IMPα5
T1 sequence (P52294 58-538, stated change not applied): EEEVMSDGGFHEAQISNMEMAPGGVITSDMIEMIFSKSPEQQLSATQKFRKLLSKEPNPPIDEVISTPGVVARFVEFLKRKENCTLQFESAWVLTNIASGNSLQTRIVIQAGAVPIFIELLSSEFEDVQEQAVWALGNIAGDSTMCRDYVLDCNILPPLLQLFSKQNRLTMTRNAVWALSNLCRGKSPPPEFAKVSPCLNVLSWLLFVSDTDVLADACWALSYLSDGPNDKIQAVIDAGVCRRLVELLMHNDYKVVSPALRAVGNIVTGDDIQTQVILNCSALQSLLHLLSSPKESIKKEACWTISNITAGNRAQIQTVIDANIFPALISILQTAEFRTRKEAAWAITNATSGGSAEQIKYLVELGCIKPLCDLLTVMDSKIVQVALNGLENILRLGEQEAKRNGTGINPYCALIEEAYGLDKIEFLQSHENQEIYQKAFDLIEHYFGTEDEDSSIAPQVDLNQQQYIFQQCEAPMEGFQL
Experiment: fluorescence polarisation; FITC-tagged AAV6 VP1-BR peptide at 2 nM; importin isoforms serially diluted from an upper concentration of 4.5 µM; three independent experiments
Details: both partners purified
pKd: −log10 of the molar value. Primed or numbered codes have the meaning given here. Ends that are not written are not given here. FITC′ = fluorescein isothiocyanate; Ahx = NCCCCCC(=O)O
measuredAttribute: pKd

>>> reported("AAV6 VP1-BR FITC-tagged peptide (residues 120-172) (also called FITC-tagged AAV6 VP1-BR; AAV6 VP1-BR FITC peptide; source: synthetic peptide (GenScript)) peptide: {FITC′-Ahx}-QAKKRVLEPFGLVEEGAKTAPGKKRPVEQSPQEPDSSSGIGKTGQQPAKKRLN")
7.15
